# Test system: WT Max(13-93) synthetic (M65Nle)
# procedure text: PBM 8-mer E-score (E-score (rank enrichment, -0.5 to 0.5)); higher = stronger preferential binding
In all, about 33,000 sequences were measured (“E-score (rank enrichment, -0.5 to 0.5)”: median about -0.0075, highest 2% from about 0.23 on). The sample as a whole holds a higher share of the highest values than the screen did.
Listing of recorded PBM 8-mer E-score by entry.
No unit in the answer, please; the number alone is enough.

// known answers, use as guide
| seq | target system | PBM 8-mer E-score |
| --- | --- | --- |
| AGAGTACG | WT Max(13-93) synthetic (M65Nle) | -0.124 |
| ACATAATC | WT Max(13-93) synthetic (M65Nle) | 0.111 |
| GAGCGCTA | WT Max(13-93) synthetic (M65Nle) | -0.0703 |

Lookup: So what's the measured PBM 8-mer E-score for this one? ATAATACG
Found: 0.179

Lookup: Record request: PBM 8-mer E-score value, item CCTCACAC
Found: -0.0382

Lookup: Form field: reported PBM 8-mer E-score of ATATTAAG
Found: 0.131

Lookup: Tell me the measured PBM 8-mer E-score of ATATTAAA , please.
Found: 0.24

Lookup: Which PBM 8-mer E-score value belongs to CAATGCGC ?
Found: 0.0235

Source: the supplement of paper PMC12636033
